biological target: SHP2-C SH2; test: SH2 binding enrichment of the phosphorylated peptide, bacterial display (enrichment ratio); higher = better substrate or ligand; peptides without Tyr show the background
measure: SH2 binding enrichment

# residue_codes, SH2 binding enrichment
measured = [
    ("AGQEKYSAMRD [HRAS_Y64_E63K]", 0.639),
]

I: GEIQEYGAPLD [ABCC1_Y1508_S1512L]
II: GIVKAYYVHAR [AIPL1_Y267_R270H]
Kindly identify which of I and II has the larger recorded SH2 binding enrichment value. Lab log: write the label of the selected item as the result.
II
(II: 1.05, I: 0.734)

----------
target: Fyn (UniProt P06241); assay: phosphorylation enrichment, bacterial display (enrichment ratio); higher = better substrate or ligand; peptides without Tyr show the background
Sequence (P06241 whole entry, looked up): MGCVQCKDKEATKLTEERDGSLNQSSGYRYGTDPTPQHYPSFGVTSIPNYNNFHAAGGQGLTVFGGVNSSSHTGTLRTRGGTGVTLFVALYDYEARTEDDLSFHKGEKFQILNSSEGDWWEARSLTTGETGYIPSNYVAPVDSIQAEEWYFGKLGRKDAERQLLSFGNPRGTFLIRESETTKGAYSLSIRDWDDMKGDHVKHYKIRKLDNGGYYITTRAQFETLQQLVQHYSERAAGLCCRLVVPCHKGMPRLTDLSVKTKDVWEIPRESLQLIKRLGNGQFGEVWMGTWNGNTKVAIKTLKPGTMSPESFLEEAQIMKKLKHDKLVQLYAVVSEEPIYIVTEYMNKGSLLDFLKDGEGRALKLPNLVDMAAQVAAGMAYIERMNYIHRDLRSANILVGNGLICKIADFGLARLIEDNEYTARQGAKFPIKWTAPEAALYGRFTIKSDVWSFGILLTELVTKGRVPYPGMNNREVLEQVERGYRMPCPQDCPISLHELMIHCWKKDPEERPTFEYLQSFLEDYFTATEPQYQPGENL
Documented phosphorylation enrichment across a set of sequences
Give the figure only, with no unit attached.

# residue_codes, phosphorylation enrichment
records = [
    ("PRLLRYLQLDF [ASB10_Y457]", 0.692),
    ("WKEIEYEVVPD [CPS1_Y634_R638P]", 0.483),
    ("SLLTDCSPQLQ [OTC_Y345_Y345C]", 0.454),
    ("MPPHIYAITDT [MYH9_Y151]", 1.73),
    ("GAMGHYVLAER [HFE_Y342]", 0.41),
    ("DAVAVYHGKIS [SH2D1A_Y7]", 0.442),
    ("PSQRRYLYYYS [PTEN_Y174_V175L]", 1.04),
    ("LYSDHYSPSGR [TMPRSS12_Y23]", 1.01),
    ("LNYNEYFRDLN [HPRT1_Y198_D194N]", 0.996),
    ("IVGRLYRLLTE [SETX_Y1978_L1976R]", 0.376),
]

Which phosphorylation enrichment is listed for TTKGSYSLFVR [HCK_Y180_S183Y_YF] ?
0.418

What does the data say about its phosphorylation enrichment? Entry: FIPSNYVAEDR [FRK_Y104_YF]
0.394

Can you share its phosphorylation enrichment? I mean this sequence: SDPIVYTLENI [EMR1_Y534_I533V]
4.76

Requested read-out: phosphorylation enrichment. Entry: NLNGKYFKPRA [ANGPTL3_Y417_N418Y_YF]
0.335

Quick one: phosphorylation enrichment for YSMGCYEIYLG [HMGCL_Y198_S201Y] ?
6.34

Using the record for KQLFAYKMLMA [TMC2_Y209_YF] , report its phosphorylation enrichment.
0.475

For the sequence shown here, FADIAYNYRHR [PAH_Y166_G171R] , give the reported phosphorylation enrichment.
0.27

# lookup: phosphorylation enrichment of FLAVGYHKTHI [IDS_Y225_P228T]
0.477

phosphorylation enrichment for QRRFVYFFSFL [PTEN_Y176_YF] ?
0.656

// query phosphorylation enrichment value for entry VDEERYDIEAK [TNNI3_Y112]
0.513

What value of phosphorylation enrichment has been recorded for this entry: DMLYQYLKQIE [RPAP3_Y569]
1.19

Can you look up the measured phosphorylation enrichment of VFFGSYSRPFG [NKAP_Y104_YF] for me?
0.382

// returns reported phosphorylation enrichment for input AGAKTYKMSMA [CPS1_Y309]
0.402

# lookup: phosphorylation enrichment of PRAGVYPEKDQ [DNM2_Y626_L621P]
0.658

Request the reported phosphorylation enrichment associated with RNPLRYTSILT [OR51B6_Y130_S126N]
0.532

For the sequence NQKGKYFNVER [ANAPC4_Y469_R465Q] , what phosphorylation enrichment is on record?
0.462

----------
List of phosphorylation enrichment values.
system: AncSZ; test: phosphorylation enrichment, bacterial display (enrichment ratio); higher = better substrate or ligand; peptides without Tyr show the background
Lab note: jot down the number only; don't add units.

# residue_codes, phosphorylation enrichment
measured = [
    ("APEVIYATPGA [ABLtide_2014]", 2.58),
    ("ADARMYGDLPW [PLP1_Y207_V209D]", 0.766),
    ("STEVIYQPRRK [STK11_Y36]", 0.603),
    ("VDEERYDIEAK [TNNI3_Y112]", 1.13),
]

We next turn to a different sequence, shown below.
Reported phosphorylation enrichment, sequence NAPNSYGRRPI [CDKN2A_Y44] : ____
1.23

----------
target: EPHB1 (UniProt P54762); assay: phosphorylation enrichment, bacterial display (enrichment ratio); higher = better substrate or ligand; peptides without Tyr show the background
Sequence (P54762 whole entry, looked up): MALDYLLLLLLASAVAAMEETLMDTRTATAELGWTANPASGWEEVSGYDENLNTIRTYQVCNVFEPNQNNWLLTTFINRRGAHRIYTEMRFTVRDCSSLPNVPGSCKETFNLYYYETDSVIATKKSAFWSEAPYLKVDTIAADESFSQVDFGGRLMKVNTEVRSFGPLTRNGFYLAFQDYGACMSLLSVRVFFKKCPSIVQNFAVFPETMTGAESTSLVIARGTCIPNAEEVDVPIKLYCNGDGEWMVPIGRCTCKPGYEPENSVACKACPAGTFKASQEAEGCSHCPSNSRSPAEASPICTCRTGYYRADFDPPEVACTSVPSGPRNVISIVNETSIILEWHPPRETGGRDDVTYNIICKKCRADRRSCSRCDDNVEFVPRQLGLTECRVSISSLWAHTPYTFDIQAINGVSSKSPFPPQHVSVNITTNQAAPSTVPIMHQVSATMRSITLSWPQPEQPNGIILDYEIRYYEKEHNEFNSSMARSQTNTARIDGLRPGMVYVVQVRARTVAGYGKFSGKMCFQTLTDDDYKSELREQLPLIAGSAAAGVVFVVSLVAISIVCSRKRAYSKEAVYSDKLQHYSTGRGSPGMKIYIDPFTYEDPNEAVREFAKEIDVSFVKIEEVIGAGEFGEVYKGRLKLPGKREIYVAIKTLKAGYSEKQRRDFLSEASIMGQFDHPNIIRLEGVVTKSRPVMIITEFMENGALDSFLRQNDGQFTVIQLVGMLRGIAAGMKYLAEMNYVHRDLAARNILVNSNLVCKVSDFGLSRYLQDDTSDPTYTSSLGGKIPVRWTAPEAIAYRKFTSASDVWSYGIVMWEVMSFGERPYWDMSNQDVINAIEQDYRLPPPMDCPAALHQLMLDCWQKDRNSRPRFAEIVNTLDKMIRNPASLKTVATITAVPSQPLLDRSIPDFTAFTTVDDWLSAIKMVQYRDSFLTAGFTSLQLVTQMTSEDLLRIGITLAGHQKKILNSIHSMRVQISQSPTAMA
Quick reference for phosphorylation enrichment among some sequences
Response field accepts a number only; no unit should be typed.

# residue_codes, test_system, phosphorylation enrichment
records = [
    ("EKSREYDRLYE [PIK3R1_Y463]", "EPHB1 (UniProt P54762)", 0.663),
    ("KVKGEYDMTVP [AHNAK_Y964]", "EPHB1 (UniProt P54762)", 0.491),
    ("GKSDPYHATSG [GJA1_Y247]", "EPHB1 (UniProt P54762)", 0.355),
    ("DVFRQYASLTG [GANAB_Y379]", "EPHB1 (UniProt P54762)", 0.422),
]

If you can, please state the reported phosphorylation enrichment value of QMVDMYASSFM [AVPR2_Y124_G122D_YF] .
0.992

# lookup: phosphorylation enrichment of KPNMNYDKLSW [FLI1_Y332_R337W]
0.644

Given the entry VKFLGYPPPEI [KDR_Y357_A352V_YF] , report its measured phosphorylation enrichment.
0.452

----------
molecular target: SHP2-C SH2; test: SH2 binding enrichment of the phosphorylated peptide, bacterial display (enrichment ratio); higher = better substrate or ligand; peptides without Tyr show the background;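 note: peptide library displayed on the E. coli surface as eCPX fusions, selected cells deep-sequenced, score is each peptide's frequency after selection divided by its frequency in the input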
measure: SH2 binding enrichment

# residue_codes, measure, value_measured
data = [
    ("AKIDGYITSFR", "SH2 binding enrichment", 0.936),
    ("FSSLGYPPPEG [ZSWIM4_Y87_YF]", "SH2 binding enrichment", 0.829),
    ("SLYPGYNFRYA [P2RX7_Y291]", "SH2 binding enrichment", 0.672),
    ("GCRSKYVGLWG [KCNQ1_Y184]", "SH2 binding enrichment", 1.05),
    ("KDHPDYEFQPR [SOX9_Y172_K173E_YF]", "SH2 binding enrichment", 0.73),
    ("ERDYTYDELLN [EIF2S2_Y176_E177D]", "SH2 binding enrichment", 0.688),
    ("WKEIEYEVVPD [CPS1_Y634_R638P]", "SH2 binding enrichment", 0.861),
    ("SQQTYYRVSNM [ABCD1_Y181]", "SH2 binding enrichment", 0.789),
    ("DPHKIYEFVNS [IRF3_Y107]", "SH2 binding enrichment", 0.766),
    ("VCHELYNAIRD [PBRM1_Y54_T56A]", "SH2 binding enrichment", 0.737),
    ("ITLPIYTKGSE [ANK2_Y1455_E1458G]", "SH2 binding enrichment", 0.715),
    ("KFRREYILSLE [GPC3_Y299_W296R_YF]", "SH2 binding enrichment", 0.708),
    ("QRKRAYVEIEY [MAK16_Y282]", "SH2 binding enrichment", 0.718),
    ("HGEAFYSEVKP [PAK5_Y182_YF]", "SH2 binding enrichment", 0.868),
    ("QGCGIYKDYYR [PLA2G2D_Y82_S80G]", "SH2 binding enrichment", 0.931),
]

----------
The following sequences are listed with their measured phosphorylation enrichment values.
tested on: AncSZ; test: phosphorylation enrichment, bacterial display (enrichment ratio); higher = better substrate or ligand; peptides without Tyr show the background
I'd appreciate a reply containing only the number, no unit.

# residue_codes, measure, value_measured
rows = [
    ("KTVQDYLEKFF [MMP8_Y36_YF]", "phosphorylation enrichment", 1.14),
    ("SSYDTYHLSRE [KIR3DL2_Y253_I252T]", "phosphorylation enrichment", 0.709),
    ("TARREYMHSPS [CPOX_Y429_W427R]", "phosphorylation enrichment", 0.489),
    ("FSGKAYADEEQ [CRIM1_Y826_R831Q]", "phosphorylation enrichment", 1.12),
    ("QMVDMYASSFM [AVPR2_Y124_G122D_YF]", "phosphorylation enrichment", 1.29),
    ("CTTFHYNFMCN [TP53_Y234_I232F_YF]", "phosphorylation enrichment", 0.923),
    ("QTPVLYAMLDH [MPZ_Y220]", "phosphorylation enrichment", 0.853),
    ("LIYTNYEVGKD [GSTP1_Y112_A114V]", "phosphorylation enrichment", 2.37),
]

# query: phosphorylation enrichment of entry EKSREYDRLYE [PIK3R1_Y463]
1.32

Which phosphorylation enrichment value is on record for EKEKKYMLPLD [DNM2_Y563] ?
0.885

Requested read-out: phosphorylation enrichment. Entry: EERNPYYSSAR [MCCC2_Y520_G517R]
0.942

Would you kindly share the measured phosphorylation enrichment for FHIDHYLGKEM [G6PD_Y202_R198H_YF] ?
0.556

Endpoint output: phosphorylation enrichment of SARFRYLMAEK [LDHB_Y173] . Value?
0.695

# lookup: phosphorylation enrichment of SVTCTYSPALS [TP53_Y126_N131S]
2.15

Could you tell me which phosphorylation enrichment is on file for LVKDGYQMAQP [CSF1R_Y873] ?
0.609

Give its phosphorylation enrichment value. Item: LAEMNYVHQDL [EPHB1_Y740_R743Q]
1.12

May I ask what phosphorylation enrichment has been recorded for SIKDKYLTALY [KCNH2_Y611_V612L] ?
0.727

For LLLLFCVVRYC [MPZ_Y177_Y177C] , what is its reported phosphorylation enrichment?
3.01

For the sequence GPQGVYSNKLV [PTPN14_Y506] , what phosphorylation enrichment is on record?
0.568

Bench note: what phosphorylation enrichment did QFRFIYMAVQH [PTPN11_Y515_YF] show?
2.5
